# Measured on: Androgen receptor (Homo sapiens)
# Sequence (P10275 whole entry): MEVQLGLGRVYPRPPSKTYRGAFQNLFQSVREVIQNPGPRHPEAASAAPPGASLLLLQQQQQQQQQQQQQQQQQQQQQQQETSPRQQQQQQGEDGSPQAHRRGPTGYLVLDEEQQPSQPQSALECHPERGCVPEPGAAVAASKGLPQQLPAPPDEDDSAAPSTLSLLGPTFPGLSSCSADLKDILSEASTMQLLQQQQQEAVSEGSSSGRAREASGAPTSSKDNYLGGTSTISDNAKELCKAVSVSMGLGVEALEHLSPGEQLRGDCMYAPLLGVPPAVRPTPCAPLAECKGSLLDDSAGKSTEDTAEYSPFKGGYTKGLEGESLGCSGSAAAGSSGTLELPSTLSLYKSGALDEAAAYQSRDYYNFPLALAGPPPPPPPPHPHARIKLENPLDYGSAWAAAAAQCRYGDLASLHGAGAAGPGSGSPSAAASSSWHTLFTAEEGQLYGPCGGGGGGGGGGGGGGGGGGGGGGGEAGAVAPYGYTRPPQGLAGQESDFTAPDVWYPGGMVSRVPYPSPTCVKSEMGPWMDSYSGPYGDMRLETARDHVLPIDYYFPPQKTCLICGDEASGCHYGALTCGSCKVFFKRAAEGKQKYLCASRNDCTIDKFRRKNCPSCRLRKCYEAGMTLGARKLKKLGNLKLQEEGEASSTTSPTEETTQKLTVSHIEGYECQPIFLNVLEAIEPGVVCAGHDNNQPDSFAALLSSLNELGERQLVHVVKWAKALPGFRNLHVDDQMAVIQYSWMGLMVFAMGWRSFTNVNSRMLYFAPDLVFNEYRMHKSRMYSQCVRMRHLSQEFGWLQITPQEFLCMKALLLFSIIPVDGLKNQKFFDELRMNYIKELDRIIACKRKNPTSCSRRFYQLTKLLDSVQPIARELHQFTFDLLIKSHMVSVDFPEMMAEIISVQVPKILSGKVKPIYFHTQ
# Assay procedure: Binding affinity to androgen receptor (unknown origin)
Measurement type: pIC50
Convention used: pIC50 is expressed as -log10 of the molar concentration.

# Smiles input, Measurement type, Value measured
records = [
    ("Cc1nn(-c2ccc(C#N)c(Cl)c2)c(C)c1CCc1ccc(C(=O)O)cc1", "pIC50", 7.28),
]

Turning now to a further record.
Query: Bench note: what pIC50 did Cc1c(C#N)c(-c2ccc(C#N)cc2)c(C)n1Cc1ccc(C(=O)O)cc1 show?
Result: 8.85

====

# Measured on: UniProt:P10275
# Sequence (P10275 whole entry): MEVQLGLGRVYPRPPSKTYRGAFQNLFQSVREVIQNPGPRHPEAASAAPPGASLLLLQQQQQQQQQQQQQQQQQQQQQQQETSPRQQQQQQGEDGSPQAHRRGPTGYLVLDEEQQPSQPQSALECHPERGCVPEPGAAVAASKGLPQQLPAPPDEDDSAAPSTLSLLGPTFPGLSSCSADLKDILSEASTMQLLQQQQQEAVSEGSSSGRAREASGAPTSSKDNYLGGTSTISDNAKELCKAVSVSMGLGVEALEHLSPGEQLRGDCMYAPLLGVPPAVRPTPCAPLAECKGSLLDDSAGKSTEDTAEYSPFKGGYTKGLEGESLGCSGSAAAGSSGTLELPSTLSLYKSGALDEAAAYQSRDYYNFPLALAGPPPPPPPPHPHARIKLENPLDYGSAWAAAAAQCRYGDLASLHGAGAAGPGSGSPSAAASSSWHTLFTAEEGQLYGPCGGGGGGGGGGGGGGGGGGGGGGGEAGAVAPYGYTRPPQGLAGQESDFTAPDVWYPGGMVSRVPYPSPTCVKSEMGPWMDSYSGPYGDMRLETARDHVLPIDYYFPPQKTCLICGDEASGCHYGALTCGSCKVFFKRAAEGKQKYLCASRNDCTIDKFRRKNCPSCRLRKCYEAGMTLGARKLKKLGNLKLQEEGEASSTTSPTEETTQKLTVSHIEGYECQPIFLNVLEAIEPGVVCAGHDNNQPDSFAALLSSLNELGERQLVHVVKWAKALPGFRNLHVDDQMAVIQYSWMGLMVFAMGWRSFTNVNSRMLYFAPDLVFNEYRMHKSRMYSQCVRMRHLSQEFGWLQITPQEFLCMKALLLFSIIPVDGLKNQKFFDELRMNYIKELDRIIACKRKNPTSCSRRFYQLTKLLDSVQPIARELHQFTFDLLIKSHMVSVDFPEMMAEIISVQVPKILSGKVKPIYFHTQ
# Assay procedure: Displacement of [17-alpha-methyl-H-3] mibolerone from wild-type androgen receptor (unknown origin) expressed in human Freestyle293F cells measured after 3 hrs
# Format: cell-based
Measurement type: IC50

# Compound, Value measured
rows = [
    ("Cc1nn(-c2ccc(C#N)c(Cl)c2)c(C)c1CCc1ccc(C(=O)NCCOCCOCCOCCNC(=O)[C@H](CC(C)C)NC(=O)[C@@H](O)[C@H](N)Cc2ccccc2)cc1", "190 nM"),
    ("Cc1nn(-c2ccc(C#N)c(C(F)(F)F)c2)c(C)c1Cc1ccc(C(=O)NCCOCCOCCOCCNC(=O)[C@H](CC(C)C)NC(=O)[C@@H](O)[C@H](N)Cc2ccccc2)cc1", "190 nM"),
    ("Cc1c(C#N)c(-c2ccc(C#N)cc2)c(C)n1Cc1ccc(C(=O)NCCOCCOCCOCCNC(=O)[C@H](CC(C)C)NC(=O)[C@@H](O)[C@H](N)Cc2ccccc2)cc1", "27 nM"),
    ("Cc1nn(-c2ccc(C#N)cc2Cl)c(C)c1Cc1ccc(C(=O)NCCOCCOCCOCCNC(=O)[C@H](CC(C)C)NC(=O)[C@@H](O)[C@H](N)Cc2ccccc2)cc1", "> 10000 nM"),
]

Turning now to a further record.
Query: Bench note: what IC50 did CC(C)C[C@H](NC(=O)[C@@H](O)[C@H](N)Cc1ccccc1)C(=O)NCCOCCOCCOCCNC(=O)c1ccc(S(=O)(=O)CC(C)(O)C(=O)Nc2ccc(C#N)c(C(F)(F)F)c2)cc1 (stereo not given in full) show?
Result: 1100 nM

Origin of measurements: ChEMBL document CHEMBL4219028
